// provenance: PubChem BioAssay

Biological target: NADPH oxidase 4 (Homo sapiens) (UniProt Q9NPH5)
Sequence (Q9NPH5 whole entry, looked up): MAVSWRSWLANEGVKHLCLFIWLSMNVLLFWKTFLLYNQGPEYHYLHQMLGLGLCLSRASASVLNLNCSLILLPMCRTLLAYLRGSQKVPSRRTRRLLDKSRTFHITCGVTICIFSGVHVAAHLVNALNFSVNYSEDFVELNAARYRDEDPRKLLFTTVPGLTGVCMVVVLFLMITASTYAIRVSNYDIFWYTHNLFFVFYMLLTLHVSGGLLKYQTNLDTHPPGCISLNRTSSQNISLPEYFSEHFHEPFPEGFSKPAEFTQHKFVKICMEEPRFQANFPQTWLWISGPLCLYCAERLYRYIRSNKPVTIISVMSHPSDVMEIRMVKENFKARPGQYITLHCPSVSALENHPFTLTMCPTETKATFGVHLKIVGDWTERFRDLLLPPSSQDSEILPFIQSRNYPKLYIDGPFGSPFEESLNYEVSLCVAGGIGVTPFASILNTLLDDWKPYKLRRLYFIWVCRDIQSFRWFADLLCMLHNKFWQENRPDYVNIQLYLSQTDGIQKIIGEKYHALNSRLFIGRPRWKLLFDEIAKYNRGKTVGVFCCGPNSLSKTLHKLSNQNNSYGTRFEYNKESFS
Assay: compounds shifting NOX4 Amplex Red fluorescence – cell-based, HEK293-NOX4, tetracycline-induced, NOX inhibitor project, primary screen (AID 1160)
Conditions: HEK293-NOX4, Amplex Red H2O2 fluorescence, 45 min; higher = more signal, called active from +8 up or from −8 down
# z-score listing for each entry below
Enter a number only.

These solved cases illustrate the format of a correct answer.
MOLECULE	ASSAY_RESULT
C=CCOC(=O)[C@@H]1[C@H]2C(=O)O[C@H](c3ccccc3)[C@H](c3ccccc3)N2[C@H](c2ccc(OCCOC(=O)[C@H]3C[C@H]4C(=O)N[C@@H](CC(C)C)C(=O)N4[C@H]3c3cccc(OCCO)c3)cc2)[C@@]12C(=O)Nc1ccc(I)cc12	1.02
COCC1=C([C@H](O)CCc2ccccc2)[C@H](CO)[C@@H]2C(=O)N(Cc3ccccc3)C(=O)[C@@H]2C1	0.21
COCCOC(=O)N1C(=O)[C@@]2(c3cc(C#Cc4ccc(OC)cc4)ccc31)[C@H](C(N)=O)[C@H]1C(=O)O[C@H](c3ccccc3)[C@H](c3ccccc3)N1[C@@H]2c1ccc(O)cc1	0.893
C=CC[C@@]1(C(=O)NCCN2CCOCC2)N=C(c2ccc(OCCCO)cc2)O[C@@H]1c1ccccc1CN=[N+]=[N-]	0.908
C=CCCN(CC#C[C@H]1Oc2ccccc2S(=O)(=O)N2CCC[C@@H]12)S(=O)(=O)c1ccc(C)cc1	-1.54

Would you kindly look at the next entry?
Problem: Entry C=CCN1Cc2ccccc2C[C@]2(N=C(c3ccc(OCCCO)cc3)O[C@@H]2c2ccccc2)C1=O , system NADPH oxidase 4 (Homo sapiens) (UniProt Q9NPH5): what z-score was measured?
Solution: 0.272

---

Experiment: small molecules captured by biotinylated probe aFGF10 – biochemical, small-molecule microarray, fluorescence 635/667, stem cell growth factor project, primary screen (AID 1071);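 also: score merges 667 nm spot intensity and signal to noise from triplicate slides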
Settings: higher = more signal
Param threshold (0.4) applies to composite z-score; output yes (1) when value >= threshold, no (0) when value < threshold.

Example cases with answers are listed next.
COMPOUND	CATEGORY
O=C1O[C@H](c2ccccc2)[C@H](c2ccccc2)N2[C@H]1[C@@H](C(=O)NC[C@H](O)c1ccccc1)[C@]1(C(=O)Nc3ccc(C#CC4(O)CCCCCC4)cc31)[C@H]2c1ccccc1OCCO	yes (1)
C=CCN1C(=O)[C@]2(Cc3ccccc31)N=C(c1ccc(OCCCO)cc1)O[C@@H]2c1ccccc1	yes (1)
CCN(CC)c1ccc(N2CC=CC34O[C@@H]5C=CCCOC(=O)C5[C@H]3C(=O)N(CCCO)[C@@H]4C2=O)cc1 (some centres not stated)	no (0)
Cc1ccc(S[C@]2(C(=O)NCCCN(C)C)CC(=O)N(Cc3ccccc3)[C@@H]2c2ccc(CO)cc2)cc1	no (0)
Cc1ccc(N2C(=O)c3ccccc3[C@@H](C(=O)NCC(C)C)[C@@H]2c2ccc(CO)cc2)nc1	no (0)

Problem: Item CCN(CC)c1ccc(N2CC=CC34O[C@@H]5/C=C\CCC(C)OC(=O)C5[C@H]3C(=O)N(CCCCCCO)[C@@H]4C2=O)cc1 (some centres not stated) with composite z-score of 0.4 or above?
Solution: yes (1)

Problem: Item C=CCC(OC(C)=O)[C@@H]1[C@@H](N(Cc2ccc(-c3cccc(C(F)(F)F)c3)o2)C(=O)c2ccc(C)cc2)c2cc(OCCCO)ccc2N1C(=O)c1ccc2ccccc2n1 (some centres not stated) with composite z-score of 0.4 or above?
Solution: yes (1)

---

# composite z-score listing for each entry below
Biological target: Calmodulin-1 (Homo sapiens) (UniProt P0DP23)
Experiment: small molecules binding calmodulin-1 with EGTA – biochemical, small-molecule microarray, Cy5-labelled CALM1, profiling panel (AID 1111);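 also: labelled calmodulin applied in Tris saline Tween buffer holding calcium plus EGTA and DTT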
Conditions: Cy5-CALM1 binding fluorescence, higher = more signal
Enter a number only.

These solved cases illustrate the format of a correct answer.
COMPOUND	composite z-score
COC(=O)[C@@]1(Cc2ccccc2)[C@H]2c3cc(C(=O)N(C)C)n(Cc4ccccc4)c3C[C@H]2CN1C(=O)c1ccccc1	0.733
O=C1OCCC/C=C\[C@H]2OC34C=CCN(CCN5CCOCC5)C(=O)[C@H]3N(CCO)C(=O)[C@@H]4C12 (stereo partly drawn)	-0.0877
O=C(NCCN1CCOCC1)[C@@H]1c2ccccc2C(=O)N(Cc2cc(F)cc(C(F)(F)F)c2)[C@H]1c1ccc(CO)cc1	-0.346

Problem: Given the compound C=C(C(=O)CC[C@H](OC(=O)c1cccnc1)c1ccccc1OCCO)C(C)C , what is its reported composite z-score?
Solution: -0.62

Problem: Given the compound [N-]=[N+]=NCc1ccccc1C[C@]1(C(=O)NCC(O)CO)COC(c2ccc(OCCCO)cc2)=N1 (stereo partly drawn) , what is its reported composite z-score?
Solution: 2.44

Problem: Given the compound Cc1ccc(S[C@]2(C(=O)NCc3ccccc3)CC(=O)N(Cc3cc(C(F)(F)F)cc(C(F)(F)F)c3)[C@@H]2c2ccc(CO)cc2)cc1 , what is its reported composite z-score?
Solution: -0.477

Problem: Given the compound C=CCOC(=O)[C@@H]1[C@H]2C(=O)O[C@H](c3ccccc3)[C@H](c3ccccc3)N2[C@H](c2ccc(OCCOC(=O)[C@H]3C[C@H]4C(=O)N[C@@H](Cc5ccccc5)C(=O)N4[C@H]3c3ccc(O)cc3)cc2)[C@@]12C(=O)Nc1ccc(I)cc12 , what is its reported composite z-score?
Solution: -0.0584

Problem: Given the compound CC(=O)N1Cc2ccccc2C[C@@]2(N=C(c3ccc(OCCCO)cc3)O[C@H]2c2ccccc2)C1=O , what is its reported composite z-score?
Solution: 1.26

---

# z-score listing for each entry below
Assay: resazurin metabolic signal in HepG2 cells – cell-based, resazurin fluorescence, 24 h, PK04 Diversity Set, profiling panel (AID 1172); also: test concentration not given here
Conditions: HepG2 viability, higher = more signal
Enter a number only.

These solved cases illustrate the format of a correct answer.
COMPOUND	z-score
COc1ccc(C(O)C2C=CC3C(=O)N(c4ccccc4)C(=O)C3N2Nc2ccccc2)c2ccccc12 (centres undefined)	-1.41
O=C(NCC(O)CO)[C@@]1(Cc2ccccc2)N=C(c2ccc(OCCCO)cc2)O[C@H]1c1ccccc1 (some centres undefined)	0.531
COC(=O)[C@@]1(Cc2ccc(F)cc2)[C@H]2c3cc(C(=O)N4CCCC4)n(CCc4ccc(OC)c(Br)c4)c3C[C@H]2CN1C(=O)c1ccccc1	-1.25
COc1ccc(C#Cc2ccc3c(c2)[C@]2(C(=O)N3)[C@H](C(=O)N3CCN(c4ncccn4)CC3)[C@H]3C(=O)O[C@H](c4ccccc4)[C@H](c4ccccc4)N3[C@@H]2c2ccc(O)cc2)cc1	-0.795
C=CCOC(=O)[C@H]1[C@@H]2C(=O)O[C@@H](c3ccccc3)[C@@H](c3ccccc3)N2[C@@H](c2ccc(OCCOC(=O)[C@@H]3C[C@@H]4C(=O)NCC(=O)N4[C@@H]3c3ccc(O)cc3)cc2)[C@]12C(=O)Nc1ccc(I)cc12	-0.247
CC(C)N1C(=O)c2ccccc2[C@](C)(C(=O)NC2CC2)[C@@H]1c1ccc(CO)cc1	0.989

Problem: Given the compound CN(C)CCCC[C@@H]1NC(=O)[C@@H]2C[C@H](C(=O)NCCCCCCN)[C@H](c3ccc(O)cc3)N2C1=O , what is its reported z-score?
Solution: -1.14

Problem: Given the compound COC(=O)[C@@]1(Cc2ccccc2)[C@H]2c3cc(C(=O)N(C)C)n(Cc4ccccc4)c3C[C@H]2CN1C(=O)c1ccccc1 , what is its reported z-score?
Solution: -0.853

Problem: Given the compound C[N+](C)(C)CCCCNC(=O)[C@H]1C[C@H]2C(=O)N3CCC[C@H]3C(=O)N2[C@H]1c1ccc(O)cc1 , what is its reported z-score?
Solution: 0.0897

Problem: Given the compound C#C[C@H](O[Si](C#CCCCCCC)(C(C)C)C(C)C)c1ccccc1 , what is its reported z-score?
Solution: 0.465

Problem: Given the compound CCCC[C@H]1OB(O)C[C@H]2C1=C(C)Cn1c(=O)n(-c3ccccc3)c(=O)n12 , what is its reported z-score?
Solution: 0.916

Problem: Given the compound COCCOC(=O)N1C(=O)[C@@]2(c3cc(C#Cc4ccc(OC)cc4)ccc31)[C@H](C(N)=O)[C@H]1C(=O)O[C@H](c3ccccc3)[C@H](c3ccccc3)N1[C@@H]2c1ccc(O)cc1 , what is its reported z-score?
Solution: -0.0716

Problem: Given the compound C=CC[C@@]1(C(=O)OC)N=C(c2ccc(OCCCO)cc2)O[C@@H]1c1ccccc1CN=[N+]=[N-] , what is its reported z-score?
Solution: 1.09

Problem: Given the compound COC(=O)[C@@]1(Cc2ccc(OC)cc2)[C@H]2c3cc(C(=O)N(C)C)n(CCSCCO)c3C[C@H]2CN1C(=O)c1ccccc1 , what is its reported z-score?
Solution: 0.123
